target: von Willebrand factor (VWF) (Homo sapiens, UniProt P04275 P04275:764-2813); test: filter; Bmax 87%; 2 mM CaCl2, 37 C; settings: tags: factor VIII free human purified VWF, Haematologic Technologies Inc; label: 5'-32P
pKd: −log10 of the molar value.
Documented pKd across a set of binders

{"columns": ["binder", "pKd"],
 "data": [
  ["ACGAACUGCCCUCGAUCGACGCACAGACGUACCCG (ssRNA, 2'-F C9,C10,C11,C20,C22; ribo G21; rest 2'-OMe; 3' idT) [T82 vrt4]", 7.41],
  ["ACGAACUGCCCUCUAUUAUUUGACGCACAGACGU (ssRNA, 2'-F C2,U7,C9,C10,C11,U12,C24,C26,C32,U34; ribo A1,G3,G8,A23,G25,A27,G33; rest 2'-OMe; 3' idT) [T90 vrt1]", 9.05]
]}

Data credit: patent US20190218553
